// provenance: ChEMBL document CHEMBL4350976

Here the recorded Retention time is given for each entry.
# procedureSummary: Retention time of the compound using 0.1% TFA in water and 0.1% TFA in acetonitrile-water (80:20 v/v) as eluents by RP-HPLC analysis
# Type: physicochemical
Where a SMILES comes first, the peptide text is derived from it. The star is where a group is joined. X1 = COc1cccc2c1C(=O)c1c(O)c3c(c(O)c1C2=O)C[C@@](O)(/C(C)=N/OCC(=O)*)C[C@@H]3O[C@H]1C[C@H](N)[C@H](O)[C@H](C)O1

Please review the entries below; each comes with its answer.
COc1cccc2c1C(=O)c1c(O)c3c(c(O)c1C2=O)C[C@@](O)(/C(C)=N/OCC(=O)N[C@@H](CC(C)C)C(=O)N[C@@H](CCCNC(=N)N)C(=O)N[C@@H](CCCNC(=N)N)C(=O)N[C@@H](Cc1ccc(O)cc1)C(=O)N[C@H](C(=O)N[C@@H](Cc1cnc[nH]1)C(=O)N[C@@H](CC(C)C)C(=O)N[C@@H](CC(C)C)C(=O)N[C@@H](Cc1ccc(O)cc1)C(=O)N[C@@H](C)C(=O)N[C@H](C(N)=O)[C@@H](C)O)C(C)C)C[C@@H]3O[C@H]1C[C@H](N)[C@H](O)[C@H](C)O1 (X1-LRRYVHLLYAT-NH2) ... 31.1 to 33.1 min
COc1cccc2c1C(=O)c1c(O)c3c(c(O)c1C2=O)C[C@@](O)(/C(C)=N/OCC(=O)N[C@@H](CC(C)C)C(=O)N[C@@H](CCCNC(=N)N)C(=O)N[C@@H](CCCNC(=N)N)C(=O)N[C@@H](Cc1ccc(O)cc1)C(=O)N[C@H](C(=O)N[C@@H](Cc1cnc[nH]1)C(=O)N[C@@H](C)C(=O)NCC(=O)N[C@@H](Cc1ccc(O)cc1)C(=O)N[C@@H](C)C(=O)N[C@H](C(N)=O)[C@@H](C)O)C(C)C)C[C@@H]3O[C@H]1C[C@H](N)[C@H](O)[C@H](C)O1 (X1-LRRYVHAGYAT-NH2) ... 27.2 to 29.9 min
COc1cccc2c1C(=O)c1c(O)c3c(c(O)c1C2=O)C[C@@](O)(/C(C)=N/OCC(=O)N[C@@H](CC(C)C)C(=O)N[C@@H](CCCNC(=N)N)C(=O)N[C@@H](CCCNC(=N)N)C(=O)N[C@@H](Cc1ccc(O)cc1)C(=O)N[C@H](C(=O)N[C@@H](Cc1cnc[nH]1)C(=O)N[C@@H](CC(C)C)C(=O)N[C@@H](CCC(=O)O)C(=O)N[C@@H](Cc1ccc(O)cc1)C(=O)N[C@@H](C)C(=O)N[C@H](C(N)=O)[C@@H](C)O)C(C)C)C[C@@H]3O[C@H]1C[C@H](N)[C@H](O)[C@H](C)O1 (X1-LRRYVHLEYAT-NH2) ... 29.3 to 31.2 min

From here, focus on the item given below.
Please look up its Retention time: COc1cccc2c1C(=O)c1c(O)c3c(c(O)c1C2=O)C[C@@](O)(/C(C)=N/OCC(=O)N[C@@H](CC(C)C)C(=O)N[C@@H](CCCNC(=N)N)C(=O)N[C@@H](CCCNC(=N)N)C(=O)N[C@@H](Cc1ccc(O)cc1)C(=O)N[C@H](C(=O)N[C@@H](Cc1cnc[nH]1)C(=O)N[C@@H](CC(C)C)C(=O)NCC(=O)N[C@@H](Cc1ccc(O)cc1)C(=O)N[C@@H](C)C(=O)N[C@@H](C)C(N)=O)C(C)C)C[C@@H]3O[C@H]1C[C@H](N)[C@H](O)[C@H](C)O1 (X1-LRRYVHLGYAA-NH2)
28 to 30.7 min
